Target: Gal(b1-4)GlcNAc(b1-2)Man(a1-3)[GlcNAc(b1-4)][Gal(b1-4)GlcNAc(b1-2)Man(a1-6)]Man(b1-4)GlcNAc(b1-4)GlcNAc
Assay: glycan array binding signal (z-score within array); higher = stronger binding
Details: glycan notation: IUPAC condensed, linker removed
The entries come from a sample that favours the strongest signals as a whole.

{"binder": "HBHA-Rv (Mycobacterium tuberculosum), P0A5P6 (protein) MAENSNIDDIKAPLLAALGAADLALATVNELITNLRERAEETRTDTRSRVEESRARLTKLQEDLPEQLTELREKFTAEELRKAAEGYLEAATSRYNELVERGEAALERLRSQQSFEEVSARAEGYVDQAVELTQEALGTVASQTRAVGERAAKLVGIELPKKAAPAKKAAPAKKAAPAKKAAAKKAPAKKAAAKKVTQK", "glycan array binding signal (z-score)": -0.309}
{"binder": "Epa3to1 (Candida glabrata) (protein) MGSSHHHHHHSSGLVPRGSHMKRELSSQNPFGYPIGCSPQDVAIIPGLTMELYSYPIVSGTPPNCYDASYVDPEYPRTGYLKRKMVGKSTGVTGNLNYKYSVEKACMVKYGNLPAGYNYNEPLTVSNFTMILYGYFKAQTTGLHTFFVNADDLLYINFGAGNAFDCCKREDSKTKLGEYVAYDIWHVDSSKNKVSLFLEKDLYYPIRMFFNNREYDSSLDLSFSVNGATDQISDFSGYLYSVPDQPDTCPAHIGYDTTCR", "glycan array binding signal (z-score)": -0.291}
{"binder": "PfulAvr4 2 (Pseudocercospora fuligena) (protein) HHHHHHDYKDDDDKAKPIKPFACPPKDFTTTKCQGPVDCLYANPLSCLGYIQCVCDDDACSTATPYAKSCPTGLAWVEKLKRCDGIKKSACPKKMYEGS", "glycan array binding signal (z-score)": -0.216}
